Where do the numbers come from? From ChEMBL document CHEMBL1961873.

molecular target: Cyclin-dependent kinase 1 (Homo sapiens); settings: at 0.1 µM;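 also: enzyme assay on the CDK1/cyclin B complex, reported as mean percent inhibition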
Result Type: inhibition (%)
Answers are plain numbers, in %.

Below are worked cases with known answers.
COc1ccc2ncnc(Nc3ccc(OCc4ccccc4)cc3)c2c1 = 0.67
COc1ccc(-c2nn3ncccc3c2-c2ccnc(Nc3cccc(C(F)(F)F)c3)n2)cc1 = 0.53
FC(F)(F)c1ccc(-c2nn3ncccc3c2-c2ccnc(Nc3ccc4c(c3)OCCO4)n2)cc1 = 5.01
CCS(=O)(=O)c1ccc(OC)c(Nc2ncc(-c3cccc(OC)c3)o2)c1 = -0.89
CN(C)C(=O)O[C@@H]1CN[C@@H](C#Cc2cc3ncnc(Nc4ccc(OCc5cccc(F)c5)c(Cl)c4)c3s2)C1 = 0.38
CC(C)c1ccc2c(c1)NC(=O)/C2=N/Nc1ccc(S(N)(=O)=O)cc1 = 2.52

Dear colleague, could you please provide inhibition for the compounds listed below?
1. NS(=O)(=O)c1cccc(-c2cc3ccncc3cc2OCc2ccccc2)c1
2. O=C(Nc1ccc(Oc2ccc3[nH]c(NC(=O)c4ccco4)nc3c2)cc1)Nc1cc(C(F)(F)F)ccc1F
3. NS(=O)(=O)c1cccc(Nc2cc(-c3ccc(F)cc3)n[nH]2)c1

## Output
[2.03, -5.04, 0.79]

Dear colleague, could you please provide inhibition for the compounds listed below?
1. c1ccc(Cc2nc3ccc(Nc4ncnc5ccccc45)cc3[nH]2)cc1
2. COc1cc(Nc2nccc(-c3cnn4ncccc34)n2)cc(OC)c1
3. c1ccc(Nc2ncc(-c3ccccc3)o2)cc1
4. Cc1ccc2c(c1)/C(=N/Nc1ccc(S(N)(=O)=O)cc1)C(=O)N2
5. COc1cccc(-n2ncc3c(N/N=C/c4ccc(C)cc4)ncnc32)c1
6. COc1cc2ncn(-c3cc(OCc4ccccc4S(C)(=O)=O)c(C#N)s3)c2cc1OC
7. CCOc1nccc2c1nc(-c1nonc1N)n2CC

## Output
1. 3.12
2. 69.1
3. 2.77
4. 3.51
5. 4.4
6. 1.59
7. 0.5

Dear colleague, could you please provide inhibition for the compounds listed below?
1. Nc1nccc(-c2c(-c3ccc(F)cc3)ncn2CCCN2CCOCC2)n1
2. CCn1c(-c2nonc2N)nc2ccc(F)cc21
3. Oc1cccc(-c2nc(-c3ccccc3)[nH]c2-c2ccncc2)c1
4. COc1cc2ncnc(Nc3ccc(C)c(O)c3)c2cc1OC
5. Cc1ccc2c(-c3ccnc(Nc4cccc(C(F)(F)F)c4)n3)c(-c3ccccc3)nn2n1
6. NS(=O)(=O)c1ccc(Nc2cc(-c3cccc(O)c3)n[nH]2)cc1

## Output
0.36
0.74
0.66
0.59
3.78
2.03
